# target_or_system: T1, 4H687-bA
# T1 chain: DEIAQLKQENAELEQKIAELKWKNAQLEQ
# procedure_summary: two-hybrid library CCNG1;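 note: natural log of median RNA to DNA barcode read ratio; higher means stronger binding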
readout_label: interaction score

Some solved entries appear below for comparison.
- binder: "DKNAQLKQKIAELEQEIAELEWENAQLEQ [4H3843-bA]"
  interaction score: -0.85
- binder: "DEIAQLEQKNAELKQEIAELKWKIAQLKQ [4H462-bA]"
  interaction score: 0.993
- binder: "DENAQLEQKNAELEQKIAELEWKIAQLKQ [4H1446-bA]"
  interaction score: -0.607

a = DKNAQLKQEIAELEQENAELEWKIAQLKQ [4H3606-bA]
b = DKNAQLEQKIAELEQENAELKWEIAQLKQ [4H3354-bA]
query: Among a and b , whose measured interaction score is the smaller figure? The response must carry the label of the picked entry.
result: a

A = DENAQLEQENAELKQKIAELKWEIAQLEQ [4H1257-bA]
B = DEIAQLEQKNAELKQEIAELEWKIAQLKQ [4H454-bA]
C = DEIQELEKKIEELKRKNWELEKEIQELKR [4H370-bH]
query: Rank by interaction score (largest to smallest). Labels, ranked as asked.
result: B, C, A
(B: 1.48, C: 0.534, A: -0.935)
